target: leucine-rich repeat kinase 2 (LRRK2) (Homo sapiens); construct: LRRK2^RCKW (ROC, COR, Kinase, WD40); experiment: biochemical; parameters: PhosphoSense kinase activity assay, purified LRRK2 RCKW; settings: read-out: IC50
Sequence (Q5S007 1327-2527 limits assumed): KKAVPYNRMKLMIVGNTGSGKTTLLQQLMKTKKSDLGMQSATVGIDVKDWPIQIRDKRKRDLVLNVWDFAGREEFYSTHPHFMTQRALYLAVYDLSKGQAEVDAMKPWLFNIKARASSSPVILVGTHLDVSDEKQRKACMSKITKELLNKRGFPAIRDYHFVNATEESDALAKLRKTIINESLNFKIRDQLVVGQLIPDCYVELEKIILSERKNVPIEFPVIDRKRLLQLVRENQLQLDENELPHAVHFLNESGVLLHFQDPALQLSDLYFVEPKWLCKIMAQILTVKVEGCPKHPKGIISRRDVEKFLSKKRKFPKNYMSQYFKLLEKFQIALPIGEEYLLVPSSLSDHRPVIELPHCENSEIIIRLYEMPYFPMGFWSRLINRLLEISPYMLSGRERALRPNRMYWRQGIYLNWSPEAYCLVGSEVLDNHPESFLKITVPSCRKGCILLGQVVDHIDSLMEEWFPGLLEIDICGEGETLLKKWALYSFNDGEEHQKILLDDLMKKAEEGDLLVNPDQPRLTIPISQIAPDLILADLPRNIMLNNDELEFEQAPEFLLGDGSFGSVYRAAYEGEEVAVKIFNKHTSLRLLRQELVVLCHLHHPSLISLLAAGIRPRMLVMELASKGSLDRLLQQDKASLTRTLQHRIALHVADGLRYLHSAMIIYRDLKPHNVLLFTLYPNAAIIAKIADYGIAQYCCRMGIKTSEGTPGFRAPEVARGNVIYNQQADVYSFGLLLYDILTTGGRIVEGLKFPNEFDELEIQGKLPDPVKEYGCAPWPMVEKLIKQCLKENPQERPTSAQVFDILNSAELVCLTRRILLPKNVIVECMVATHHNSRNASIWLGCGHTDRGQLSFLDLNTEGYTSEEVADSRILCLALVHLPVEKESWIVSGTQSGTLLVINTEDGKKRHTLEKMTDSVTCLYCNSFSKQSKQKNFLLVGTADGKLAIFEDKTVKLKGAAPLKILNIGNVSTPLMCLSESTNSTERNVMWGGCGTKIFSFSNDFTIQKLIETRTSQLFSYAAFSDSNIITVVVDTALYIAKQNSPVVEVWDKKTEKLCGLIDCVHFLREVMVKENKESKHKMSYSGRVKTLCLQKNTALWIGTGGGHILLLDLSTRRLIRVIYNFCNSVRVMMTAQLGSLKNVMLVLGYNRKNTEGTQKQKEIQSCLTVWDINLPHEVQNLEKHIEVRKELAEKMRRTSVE
quantity-kind: IC50 (nM)
Provide only the numeric value, understood in nM.

Identify measured IC50 corresponding to Cc1ccc(C(=O)Nc2ccc(CN3CCN(C)CC3)c(C(F)(F)F)c2)cc1C#Cc1ccc2cn[nH]c2c1 [compound 52]
897

###

biological target: LRRK2^KW (Homo sapiens, UniProt Q5S007); construct: Kinase and WD40 domain construct (KW); set-up: DSF thermal shift of purified LRRK2 KW construct with compound; conditions: binder
Sequence (Q5S007 whole entry, the tested form may be a part): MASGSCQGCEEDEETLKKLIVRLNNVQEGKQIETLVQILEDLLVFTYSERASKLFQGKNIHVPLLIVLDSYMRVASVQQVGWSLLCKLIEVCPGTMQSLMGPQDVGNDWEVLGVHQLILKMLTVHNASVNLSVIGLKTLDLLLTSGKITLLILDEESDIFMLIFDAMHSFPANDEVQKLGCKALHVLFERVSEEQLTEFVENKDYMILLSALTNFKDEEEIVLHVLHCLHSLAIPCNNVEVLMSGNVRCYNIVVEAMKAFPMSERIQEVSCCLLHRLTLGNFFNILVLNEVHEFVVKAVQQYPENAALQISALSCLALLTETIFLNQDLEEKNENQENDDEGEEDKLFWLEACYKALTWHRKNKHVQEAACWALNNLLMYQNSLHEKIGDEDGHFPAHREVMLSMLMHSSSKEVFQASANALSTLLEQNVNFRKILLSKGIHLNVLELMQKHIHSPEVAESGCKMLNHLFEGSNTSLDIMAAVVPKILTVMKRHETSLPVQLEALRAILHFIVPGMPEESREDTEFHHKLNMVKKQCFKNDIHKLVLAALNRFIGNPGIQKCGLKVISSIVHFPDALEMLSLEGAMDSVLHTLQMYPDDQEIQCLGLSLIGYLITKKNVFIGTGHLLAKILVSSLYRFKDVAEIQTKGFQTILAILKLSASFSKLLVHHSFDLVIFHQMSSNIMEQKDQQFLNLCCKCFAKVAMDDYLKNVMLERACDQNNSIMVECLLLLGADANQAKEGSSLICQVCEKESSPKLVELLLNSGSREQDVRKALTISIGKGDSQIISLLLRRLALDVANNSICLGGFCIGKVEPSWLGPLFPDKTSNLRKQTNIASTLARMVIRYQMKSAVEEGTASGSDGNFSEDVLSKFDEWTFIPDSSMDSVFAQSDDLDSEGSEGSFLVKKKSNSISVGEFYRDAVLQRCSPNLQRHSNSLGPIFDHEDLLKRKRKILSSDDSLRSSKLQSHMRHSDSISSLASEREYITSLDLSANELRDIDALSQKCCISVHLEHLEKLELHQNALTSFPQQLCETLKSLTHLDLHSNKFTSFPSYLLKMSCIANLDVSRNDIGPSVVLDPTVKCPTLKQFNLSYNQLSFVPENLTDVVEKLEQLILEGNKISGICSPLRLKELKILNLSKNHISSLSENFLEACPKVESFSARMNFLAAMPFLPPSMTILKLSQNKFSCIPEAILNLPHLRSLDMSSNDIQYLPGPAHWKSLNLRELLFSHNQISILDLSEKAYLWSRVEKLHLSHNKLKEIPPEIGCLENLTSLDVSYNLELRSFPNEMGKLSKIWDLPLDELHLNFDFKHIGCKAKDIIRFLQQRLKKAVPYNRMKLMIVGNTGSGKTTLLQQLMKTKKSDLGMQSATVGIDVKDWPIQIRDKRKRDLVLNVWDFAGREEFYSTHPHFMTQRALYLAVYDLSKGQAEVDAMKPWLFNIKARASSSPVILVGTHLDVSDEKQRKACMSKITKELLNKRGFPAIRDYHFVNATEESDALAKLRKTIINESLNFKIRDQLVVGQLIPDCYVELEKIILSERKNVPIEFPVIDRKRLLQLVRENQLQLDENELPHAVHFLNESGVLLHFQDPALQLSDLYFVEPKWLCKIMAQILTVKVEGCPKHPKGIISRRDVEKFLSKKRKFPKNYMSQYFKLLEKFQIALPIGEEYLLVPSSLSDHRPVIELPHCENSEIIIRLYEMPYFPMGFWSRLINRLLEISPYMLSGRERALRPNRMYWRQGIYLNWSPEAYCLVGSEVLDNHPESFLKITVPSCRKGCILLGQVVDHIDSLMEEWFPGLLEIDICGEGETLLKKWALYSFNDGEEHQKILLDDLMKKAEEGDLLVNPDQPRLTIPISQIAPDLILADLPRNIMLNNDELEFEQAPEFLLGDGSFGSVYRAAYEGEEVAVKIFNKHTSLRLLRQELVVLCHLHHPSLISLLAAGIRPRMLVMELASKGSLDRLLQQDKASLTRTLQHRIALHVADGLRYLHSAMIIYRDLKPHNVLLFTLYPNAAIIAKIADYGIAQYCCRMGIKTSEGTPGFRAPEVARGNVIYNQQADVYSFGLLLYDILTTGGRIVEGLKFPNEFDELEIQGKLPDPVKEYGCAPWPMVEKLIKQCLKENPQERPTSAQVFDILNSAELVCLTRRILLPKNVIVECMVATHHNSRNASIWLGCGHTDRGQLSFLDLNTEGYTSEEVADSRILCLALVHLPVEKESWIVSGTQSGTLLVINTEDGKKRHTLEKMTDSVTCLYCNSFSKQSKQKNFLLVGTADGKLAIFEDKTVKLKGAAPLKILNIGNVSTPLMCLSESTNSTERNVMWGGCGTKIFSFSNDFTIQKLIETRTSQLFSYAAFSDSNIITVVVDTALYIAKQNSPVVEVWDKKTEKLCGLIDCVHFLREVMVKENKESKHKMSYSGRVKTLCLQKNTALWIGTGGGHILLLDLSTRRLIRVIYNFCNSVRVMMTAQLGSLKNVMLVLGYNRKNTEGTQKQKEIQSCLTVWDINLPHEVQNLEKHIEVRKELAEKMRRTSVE
Below, each entry is listed alongside its reported ∆Tm [K].
Provide only the numeric value, understood in K.

Below: 5 compounds and their reported ∆Tm [K].
1) Cc1ccc(C(=O)Nc2ccc(CN3CCN(C)CC3)c(C(F)(F)F)c2)cc1C#Cc1ccc2cn[nH]c2c1 10.0
2) NC(=O)C1(C(=O)N(c2ccc(F)cc2)c2ccc(Nc3ccc4n[nH]cc4c3)cc2)CC1 2.0
3) NC(=O)C1(C(=O)N(c2ccc(F)cc2)c2ccc(Oc3ccc4n[nH]cc4c3)cc2)CC1 1.0
4) Cc1ccc(-n2nc(C(C)(C)C)cc2NC(=O)Nc2ccc3cn[nH]c3c2)cc1 2.0
5) Cc1cn(-c2cc(NC(=O)c3ccc(C)c(Nc4ccc5n[nH]cc5c4)c3)cc(C(F)(F)F)c2)cn1 1.5

Identify measured ∆Tm [K] corresponding to NC(=O)C1(C(=O)N(c2ccc(F)cc2)c2ccc3cn[nH]c3c2)CC1
1.0

Identify measured ∆Tm [K] corresponding to CC(C)(C)c1cc(NC(=O)Nc2ccc3cn[nH]c3c2)n(-c2ccc3ncccc3c2)n1
2.0

###

Target: LRRK2^KW (Homo sapiens, UniProt Q5S007)
Construct: Kinase and WD40 domain construct (KW)
Parameters: Differential scanning fluorometry, thermal stabilization of LRRK2 KW by compound
Settings: binder
Source text: Next, we evaluated the potency and selectivity of these new compounds. We performed on-target screening by measuring the thermostability increase of LRRK2^KW in the presence of the new compounds using DSF (Supporting Information Table S2). […]
For each record, check the reported ΔTm [K]: if it is below 4 K write Met, else write Not met.

Past entries and their recorded results:
1) COc1cc(S(C)(=O)=O)ccc1Nc1nc(N(C)C)c2c(-c3cccc(NC(=O)Nc4cc(C(C)(C)C)nn4-c4ccc5ncccc5c4)c3)c[nH]c2n1 Met
2) COc1cc(C(=O)N2CCOCC2)c(F)cc1Nc1nc(N(C)C)c2c(Cl)c[nH]c2n1 Not met
3) COc1cc(C(=O)N2CCOCC2)c(F)cc1Nc1nc(N(C)C)c2c(-c3cccc(NC(=O)Nc4cc(C(C)(C)C)nn4-c4ccc(C)cc4)c3)c[nH]c2n1 Met
4) NC(=O)C1(C(=O)N(c2cccc(-c3c[nH]c4ncnc(N5CCOCC5)c34)c2)c2cccc3c2CCC3)CC1 Not met
5) COc1cc(S(C)(=O)=O)ccc1Nc1nc(N(C)C)c2c(-c3cccc(NC(=O)Nc4cc(C(C)(C)C)nn4-c4ccc(C)cc4)c3)c[nH]c2n1 Met
6) CCSc1nc(NC)c2c(-c3cccc(NC(=O)Nc4cc(C(C)(C)C)nn4-c4ccc(C)cc4)c3)c[nH]c2n1 Not met
7) Cc1ccc(-n2nc(C(C)(C)C)cc2NC(=O)Nc2cccc(-c3c[nH]c4nc(Cl)nc(N5CCOCC5)c34)c2)cc1 Not met

hey, is ΔTm [K] for CN1CCc2cc(N(C(=O)C3(C(N)=O)CC3)c3cccc(-c4c[nH]c5ncnc(N6CCOCC6)c45)c3)ccc2C1 lower than 4 K or not?
Not met

# credit: paper doi:10.1101/2024.09.17.613365
